Biological target: T1, murine GPR182 (mGPR182), expressed from mGPR182 T2A GFP in 300.19 pre-B cells (mouse, UniProt P43142 1-398)
T1 construct: GPR182, mouse; Expressed fused via a self-cleaving T2A peptide to GFP (backbone pME-Cas9-T2A-GFP, Addgene 63155); receptor and GFP are split post-translationally; also called ACKR5 (proposed); source: 300.19 mouse pre-B cells, stably transfected, on cells
T1 sequence (looked up): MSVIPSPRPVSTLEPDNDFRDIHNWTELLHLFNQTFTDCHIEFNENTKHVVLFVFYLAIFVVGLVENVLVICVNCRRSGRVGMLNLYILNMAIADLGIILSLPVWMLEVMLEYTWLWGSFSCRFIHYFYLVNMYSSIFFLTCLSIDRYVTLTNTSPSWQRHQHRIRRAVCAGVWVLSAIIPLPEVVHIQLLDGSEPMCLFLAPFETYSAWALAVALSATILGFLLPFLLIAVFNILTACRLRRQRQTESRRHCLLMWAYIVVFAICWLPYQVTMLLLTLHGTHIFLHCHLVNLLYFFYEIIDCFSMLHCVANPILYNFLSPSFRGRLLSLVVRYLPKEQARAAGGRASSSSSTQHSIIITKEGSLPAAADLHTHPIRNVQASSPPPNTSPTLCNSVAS
Experiment: flow cytometry on cells; competition binding at 4°C: 300.19 cells expressing mGPR182 or hGPR182 with 3 nM fluorescent chemokine and increasing concentrations of its unlabeled counterpart, 45 min
Conditions: one partner purified
Kd values, listed per item
Give the number; nM is assumed, so skip it.

Guide cases for Kd, answers given:
Just so you know, measured Kd for hCXCL13, unlabeled (ligand, human, UniProt O43927 23-109, looked up, CXCL13, human) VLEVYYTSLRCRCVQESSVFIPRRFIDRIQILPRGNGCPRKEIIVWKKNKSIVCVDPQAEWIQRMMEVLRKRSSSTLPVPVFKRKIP came out at 20

Value of Kd reported for the binder mCCL28, unlabeled (ligand, mouse, UniProt Q9JIL2 17-130, looked up, CCL28, mouse) FQTSEAILPMASSCCTEVSHHVSGRLLERVSSCSIQRADGDCDLAAVILHVKRRRICISPHNRTLKQWMRASEVKKNGRENVCSGKKQPSRKDRKGHTTRKHRTRGTHRHEASR is 10

Quick note, Kd for mCCL20, unlabeled (ligand, mouse, UniProt O89093 28-97, looked up, CCL20, mouse) ASNYDCCLSYIQTPLPSRAIVGFTRQMADEACDINAIIFHTKKRKSVCADPKQNWVKRAVNLLSLRVKKM landed at 120

***
The reported Kd of the binder mCCL19, unlabeled (ligand, mouse, UniProt O70460 26-108, looked up, CCL19, mouse) GANDAEDCCLSVTQRPIPGNIVKAFRYLLNEDGCRVPAVVFTTLRGYQLCAPPDQPWVDRIIRRLKKSSAKNKGNSTRRSPVS was 180
